target: canine TRPM8 (Canis lupus familiaris); assay: In Vitro Canine TRPM8 Functional Assay (Ca2+-sensitive fluorescent dye, icilin activation, FLIPR/FDSS); conditions: HEK293 cells stably expressing canine TRPM8, icilin activation; eight-point dose-response
Sequence (Q1A7N1 1-1104): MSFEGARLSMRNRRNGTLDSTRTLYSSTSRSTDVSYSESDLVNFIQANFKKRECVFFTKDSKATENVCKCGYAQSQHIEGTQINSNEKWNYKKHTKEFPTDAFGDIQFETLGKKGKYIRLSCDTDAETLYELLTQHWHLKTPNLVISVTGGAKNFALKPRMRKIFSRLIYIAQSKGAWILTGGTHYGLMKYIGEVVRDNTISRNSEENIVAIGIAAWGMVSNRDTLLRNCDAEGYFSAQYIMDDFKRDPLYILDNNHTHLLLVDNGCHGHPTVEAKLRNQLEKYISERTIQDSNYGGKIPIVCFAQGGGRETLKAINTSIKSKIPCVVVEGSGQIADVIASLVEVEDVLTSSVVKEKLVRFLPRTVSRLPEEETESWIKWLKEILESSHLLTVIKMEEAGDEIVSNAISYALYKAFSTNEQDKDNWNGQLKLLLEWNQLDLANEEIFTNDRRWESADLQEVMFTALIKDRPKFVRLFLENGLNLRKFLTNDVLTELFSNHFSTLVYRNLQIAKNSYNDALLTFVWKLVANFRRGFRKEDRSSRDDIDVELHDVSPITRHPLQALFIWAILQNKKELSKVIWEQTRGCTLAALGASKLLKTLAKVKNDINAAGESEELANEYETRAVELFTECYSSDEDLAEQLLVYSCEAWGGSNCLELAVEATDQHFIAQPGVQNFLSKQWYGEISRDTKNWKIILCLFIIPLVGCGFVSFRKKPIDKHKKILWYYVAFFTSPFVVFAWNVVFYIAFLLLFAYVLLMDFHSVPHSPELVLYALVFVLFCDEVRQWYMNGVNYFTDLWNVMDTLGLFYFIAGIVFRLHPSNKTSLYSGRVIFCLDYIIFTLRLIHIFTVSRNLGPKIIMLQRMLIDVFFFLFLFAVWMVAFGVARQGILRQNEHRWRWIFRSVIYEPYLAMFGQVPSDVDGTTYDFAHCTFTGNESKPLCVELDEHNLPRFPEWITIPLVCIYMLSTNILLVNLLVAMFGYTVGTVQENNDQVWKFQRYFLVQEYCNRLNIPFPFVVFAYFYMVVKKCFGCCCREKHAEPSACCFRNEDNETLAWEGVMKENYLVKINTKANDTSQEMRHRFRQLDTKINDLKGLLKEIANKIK
pIC50 values by entry
Bear in mind: pIC50 is minus log10 of a mol/L concentration; give just that figure.

COMPOUND: CCOP(=O)(OCC)C(Cc1ccc(F)c(F)c1)c1oc2cccc(F)c2c1Br (centres unmarked)
pIC50: 7.01
//
COMPOUND: CCOP(=O)(OCC)C(Cc1ccc2ccccc2c1)c1sc2ccccc2c1C (racemic)
pIC50: 6.78
//
COMPOUND: CC(C)OP(=O)(OC(C)C)C(Cc1ccc(F)c(F)c1)c1sc2ccccc2c1C(C)C (racemic)
pIC50: 7.17
//
COMPOUND: CC(C)OP(=O)(OC(C)C)C(Cc1cc(Cl)ccc1F)c1sc2ccccc2c1Br (centres unmarked)
pIC50: 7.77
//
COMPOUND: CC(C)OP(=O)(OC(C)C)C(Cc1cccc(C(F)(F)F)c1F)c1sc2ccccc2c1Cl (centres unmarked)
pIC50: 7.12
//
COMPOUND: CCOP(=O)(OCC)C(Cc1cc(C(F)(F)F)ccc1F)c1sc2ccccc2c1Cl (centres unmarked)
pIC50: 6.90
//
COMPOUND: CCOP(=O)(OCC)C(Cc1ccccc1Cl)c1sc2ccccc2c1C (racemic)
pIC50: 6.77
//
COMPOUND: CCOP(=O)(OCC)C(Cc1cc(Cl)ccc1F)c1sc2ccccc2c1Br (centres unmarked)
pIC50: 7.59
//
COMPOUND: CCOP(=O)(OCC)C(Cc1ccc(Cl)c(C(F)(F)F)c1)c1sc2ccccc2c1Cl (centres unmarked)
pIC50: 6.91
//
COMPOUND: CCOP(=O)(OCC)C(Cc1cc(F)cc(F)c1Cl)c1sc2ccccc2c1C (racemic)
pIC50: 6.96

Reported pIC50 for CCOP(=O)(OCC)C(Cc1cccc(C(F)(F)F)c1F)c1sc2ccccc2c1Cl (centres unmarked) : what is it?
6.88

Would you mind doing CCOP(=O)(OCC)C(Cc1ccc(F)c(F)c1)c1sc2ccccc2c1-c1ccsc1 (centres unmarked) as well?
6.98

Now the compound CCOP(=O)(OCC)C(Cc1ccc(SC)cc1)c1sc2ccccc2c1Br (centres unmarked)
6.92

Next compound: CCOP(=O)(OCC)C(Cc1ccc(C(F)(F)F)cc1)c1sc2ccccc2c1Br (centres unmarked)
7.57

What about this compound? CC(C)OP(=O)(OC(C)C)C(Cc1ccc(F)c(F)c1)c1sc2ccccc2c1C1CCCC1 (racemic)
6.85

CCOP(=O)(OCC)C(Cc1cc(O)c(Cl)cc1F)c1sc2ccccc2c1Br (centres unmarked) ?
6.91

And what about the compound CCOP(=O)(OCC)C(Cc1ccc(SC)cc1)c1sc2ccccc2c1Cl (centres unmarked) ?
6.85
